assay: RAM pathway blockade in budding yeast – dse1pr::URA3 reporter, 5-FOA selection, pilot screen (AID 869);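 also: 0% = DMSO wells with no growth and 100% = 10 µM 1-NA-PP1 with full growth; RAM network block rescues cells from 5-FOA so hits raise OD615 growth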; settings: S. cerevisiae dse1pr::URA3 5-FOA growth, OD615, 2 d; at 10 µM; active compounds read high; strain carries analog-sensitive mutant Cbk1 kinase
Criterion: inhibition meeting or surpassing 3%. Met: rule met. Not met: rule not met.

Input line: Please check the record CCOc1ccc(N(C(C)C(=O)NC2CCCCCC2)S(C)(=O)=O)cc1 (stereo unspecified) and state if its inhibition is at or above 3%.
Output line: rule not met

Input line: Please check the record Cc1cc(C)cc(N2C(=O)CC(N3CCOCC3)C2=O)c1 (stereo unspecified) and state if its inhibition is at or above 3%.
Output line: rule not met

Input line: Please check the record C=CCSc1nc2sc(C)c(C)c2c(=O)[nH]1 and state if its inhibition is at or above 3%.
Output line: rule not met

Input line: Please check the record COc1cccc(NC(=O)c2nnn(Cc3ccc(Br)cc3F)c2N)c1 and state if its inhibition is at or above 3%.
Output line: rule not met

Input line: Please check the record Cc1noc(C)c1CSc1ccccc1C(=O)N1CCN(c2ccccc2)CC1 and state if its inhibition is at or above 3%.
Output line: rule met

Input line: Please check the record Cc1cccc(CN2CCC(CNC(=O)C3CCCN(S(=O)(=O)c4cnc[nH]4)C3)CC2)c1 (stereo unspecified) and state if its inhibition is at or above 3%.
Output line: rule not met

* * *

Below is a list of entries, each paired with its recorded growth inhibition value.
assay: S. cerevisiae growth inhibition in permissive medium (OD615), pilot counter-assay for S. cerevisiae lifespan shortening project, permissive growth control (AID 705); conditions: OD615, 24 h, at 10 µM, active compounds read high
I only need the number, in %, no unit after it.

Field: example entries. Status: answers known.
CCN(CC)CCCNC(=O)c1cc2c(=O)n(C)c3ccccc3c2n1C
-6.05
COc1ccc(C2(C(=O)NCCCN(C)C)CCOCC2)cc1
-19.3
Clc1ccc(Cn2cc(/C=N/n3cnnc3)c3ccccc32)cc1
9.77
COc1cccc(C2=NOC(C(=O)Nc3cc(C)nn3-c3ccccc3)C2)c1OC (stereo unspecified)
1.31
Cc1ccc(N(C(=O)c2ccncc2)C2C=CS(=O)(=O)C2)cc1 (stereo unspecified)
-8.7
CC1(C)CC(=O)CC(C2(O)C(=O)N(Cc3ccccc3)c3ccccc32)O1 (stereo unspecified)
-7.38

Kindly review the next compound as well.
Input line: Form field: reported growth inhibition of Cc1ccccc1OCc1nnc2n1CC(C)S2 (stereo unspecified)
Output line: 3.34

* * *

experiment: doxorubicin toxicity protection in MRP-1 cells – H69AR cells, CellTiter-Glo, duplicate, MRP-1 activator project, pilot screen (AID 807); details: H69AR viability with doxorubicin, CellTiter-Glo luminescence; at 10 µM; active compounds read high;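 also: compound pretreatment 18-22 h then 72 h combined with doxorubicin; 0% = doxorubicin alone and 100% = vehicle without doxorubicin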
experimental_endpoint: viability increase (%)
I only need the number, in %, no unit after it.

Cc1ccc(Nc2ncnc3nc[nH]c23)cc1Cl
-1.76
O=C(c1ccc(CS(=O)(=O)c2ccc(Br)cc2)o1)N1CCN(C2CCCCC2)CC1
-3.78
O=C1CC(c2ccc(S(=O)(=O)NCc3ccccc3)cc2)CN1 (stereo unspecified)
-2.13
CCOc1ccc(N(CC(=O)Nc2ccc(F)c(F)c2)S(=O)(=O)c2c(C)noc2C)cc1
-3.6
CC(C)(C)NC(=O)CC(CC(=O)O)c1ccccc1 (stereo unspecified)
-0.99

Kindly review the next molecule as well.
Input line: Form field: reported viability increase of Cc1cc2c3nonc3ccc2n1-c1ccccc1
Output line: -2.59

* * *

biological target: Receptor tyrosine-protein kinase erbB-2 (Homo sapiens); test: Her2 expression decrease, cell viability multiplex – SKBR3 breast tumor cells, AlphaScreen, ATP viability, primary screen (AID 461); settings: 18-24 h, at 10 µM, active compounds read low;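 also: lower value means less Her2 protein in the cells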
Lab note: compare Her2 level with 90%, writing T if less and F if equal or more.

O=C(CSc1nnc(Cn2c(=O)sc3ccccc32)n1-c1ccccc1)Nc1nccs1
F

Input line: Problem: For the compound COc1ccc(C2C(C(=O)N3CCCC3)c3cc(OC)c(OC)cc3C(=O)N2C)cc1 (stereo not given) , is Her2 level under 90%?
Output line: T

Input line: Problem: For the compound O=C1CC(c2ccccc2)CC(O)=C1C=NCCN1CCOCC1 (stereo not given) , is Her2 level under 90%?
Output line: T

Input line: Problem: For the compound COc1ccc(NC(=O)C2CCCCN2S(=O)(=O)c2ccc(F)cc2)cc1 (stereo not given) , is Her2 level under 90%?
Output line: F

Input line: Problem: For the compound Cc1cc(C)nc(/N=C2\NC(=O)CC(C(=O)O)N2c2ccc(Cl)cc2)n1 (stereo not given) , is Her2 level under 90%?
Output line: F

Input line: Problem: For the compound CC(=O)NC(CCS(C)(=O)=O)C(=O)Nc1cc(C)on1 (stereo not given) , is Her2 level under 90%?
Output line: F

Input line: Problem: For the compound CCn1c2ccccc2c2cc(Nc3cc(C)nc4ncnn34)ccc21 , is Her2 level under 90%?
Output line: T

Input line: Problem: For the compound CC1CCC(NC(=O)C2(C)CCC(=O)N2Cc2cccnc2)CC1 (stereo not given) , is Her2 level under 90%?
Output line: F

Input line: Problem: For the compound Cn1cc(Cl)c(C(=O)NC2CCCC2)n1 , is Her2 level under 90%?
Output line: F

Input line: Problem: For the compound COc1cccc(-c2nc(CS(=O)(=O)CC(=O)Nc3cc(C)ccc3C)c(C)o2)c1 , is Her2 level under 90%?
Output line: T

Input line: Problem: For the compound COc1cccc(N(C(C)=O)c2nc(C)cc(C)c2C#N)c1 , is Her2 level under 90%?
Output line: T

Input line: Problem: For the compound COc1cc2c(cc1OC)C(C)N(C(=O)Cn1ncc3c1-c1ccccc1OC3)CC2 (stereo not given) , is Her2 level under 90%?
Output line: F

Input line: Problem: For the compound CC(=O)n1cc(-c2ccncc2)c2ccccc21 , is Her2 level under 90%?
Output line: F

Input line: Problem: For the compound CCOc1ccc(N(CC(=O)NCc2ccco2)S(=O)(=O)c2ccc(OC)c(OC)c2)cc1 , is Her2 level under 90%?
Output line: T

* * *

Below is a list of entries, each paired with its recorded viability value.
test: viability of HCT116 without oncogenic beta-catenin – human colon tumor cells, pilot screen (AID 823); settings: HCT116 beta-catenin knockout viability, CellTiter-Glo, 60 h; at 10 µM; active compounds read low;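 also: 0% = wells killed by 20 µM Hyamine and 100% = untreated DMSO cell wells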
Records with an inconclusive call do not appear. Active and inactive are the calls of the source.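 The calls were made as follows: active = cell viability at or below a set limit in both duplicate runs, the limit being the all-compound median minus 4 SD (cut at about 23% in these data, passing the limit was not always enough); inconclusive = no clear call, values can overlap the other calls; inactive = the rest.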

Field: example entries. Status: answers known.
Cc1ccc(Oc2ccccc2)c(NC=O)c1
96.2% (inactive)
Cc1cccc(OCCNC(=O)c2ncn[nH]2)c1
94.2% (inactive)
CCOc1ccc(NC(=O)CSc2nc3c(c(=O)n2-c2ccccc2OC)SCC3)cc1
94.3% (inactive)
COc1ccc(-c2nc(C(N)=O)c3[nH]c(=O)n(-c4ccccc4OC)c3n2)c(OC)c1
74.1% (inactive)
CCOc1ccc(N2CC(C(=O)Nc3ccccc3OC)CC2=O)cc1 (stereo unspecified)
102% (inactive)

Input line: Form field: reported viability of CSc1cccc(NS(=O)(=O)c2ccccc2)c1
Output line: 92.1% (inactive)

* * *

experiment: S. cerevisiae growth inhibition in permissive medium (OD615), pilot counter-assay for S. cerevisiae lifespan shortening project, permissive growth control (AID 705); conditions: OD615, 24 h, at 10 µM, active compounds read high
experimental_endpoint: growth inhibition (%)
I only need the number, in %, no unit after it.

Field: example entries. Status: answers known.
COC(=O)C(C)Sc1nnc2n(-c3cccc(C)c3)c(=O)c3c4c(sc3n12)CCCC4 (stereo not given)
-9.47
CCCN(CC1CC1)S(=O)(=O)c1ccc(S(N)(=O)=O)cc1
-8.54
COc1ccc(S(=O)(=O)N(CC(=O)N2CCN(c3ccccc3OC)CC2)c2ccccc2)cc1
-11.3
CCOc1ccc(Cn2nnc(C(=O)Nc3cc(C)cc(C)c3)c2N)cc1
-7.71

Kindly review the next compound as well.
Input line: Form field: reported growth inhibition of COCc1cc(C)nc(Nc2ccc(C)cc2C)c1C#N
Output line: -9.57

* * *

assay: S. cerevisiae growth inhibition in restrictive medium, OD615, pilot screen, restrictive growth control, yeast lifespan reduction project (AID 706); details: OD615, 48 h, at 10 µM, active compounds read high;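 also: modified DeaD lifespan yeast strain shifted to restrictive glucose medium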
experimental_endpoint: growth inhibition (%)
I only need the number, in %, no unit after it.

CC1CCc2nn(CC(=O)Nc3ccc(F)cc3F)cc2C1 (stereo not given)
-12.2
CN(C)c1oc(-c2ccccc2F)nc1C#N
-2.67
C=C(C)Cn1c(C(C)NC(=O)CCC)nc2ccccc21 (stereo not given)
-7.25
O=C(c1cccs1)N1CCc2ccccc21
1.57
COc1ccc(S(=O)(=O)Cc2ccc(C(=O)NC3CC3)o2)cc1
-4.7
CC(C)c1ccc(NC(=O)CCNS(=O)(=O)c2cccc3nonc23)cc1
-5.83
CCSC1=C(C#N)C(c2cccc(O)c2)CC(=O)N1 (stereo not given)
-11
CCOc1ccc(-c2nnc(SCC(=O)N3CCN(c4ccccc4)CC3)o2)cc1
2.85

Kindly review the next compound as well.
Input line: Form field: reported growth inhibition of Cc1n[nH]c(C)c1S(=O)(=O)N(CC(=O)N1CCc2ccccc21)c1ccc(C(C)C)cc1
Output line: 9.17

Origin of measurements: PubChem BioAssay
